Assay: HepG2 cytotoxicity, primary screen, cytotoxicity control for P. falciparum antimalarial project, cell-based, ATP luminescence (AID 2303);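 note: 0% = DMSO wells and 100% = digitonin-killed cells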
Conditions: HepG2 viability, 24-48 h, at 10 µM, hits give high values
What inhibition was measured for each of the following?
State the answer as a number, implicitly in %.

**Q:** Complete the entry with inhibition for CCCCCCCc1cc(O)c2c3c(c(=O)oc2c1)CN(C)CC3
**A:** -5

**Q:** Complete the entry with inhibition for CN1[C@@H]2CC[C@H]1c1cc(NC(=O)c3cc(-c4ccc(Cl)cc4)cs3)ccc12
**A:** 62

**Q:** Complete the entry with inhibition for CN1CCC(O)(c2ccc(Br)cc2)C(C(O)c2ccc(Br)cc2)C1 (stereo not given)
**A:** 28

**Q:** Complete the entry with inhibition for N#Cc1c(F)cc(N2CCC(NCC[C@H](N)Cc3ccc(F)c(F)c3)CC2)cc1F
**A:** 70

**Q:** Complete the entry with inhibition for COC(=O)c1ccc(CC(C)NCC(O)c2ccc3ccc4ccccc4c3c2)cc1 (stereo not given)
**A:** 21

**Q:** Complete the entry with inhibition for Cc1ccc(C(=O)Nc2ccnc(N(C)C3CCN(Cc4cccc(O)c4)CC3)c2)cn1
**A:** 0

**Q:** Complete the entry with inhibition for CN1CC=C(c2csc3ccc(NC(=O)Nc4ccc(-c5ccncc5)c(Cl)c4)cc23)CC1
**A:** 10

**Q:** Complete the entry with inhibition for CN1CC=C(c2c[nH]c3ccc(OC(=O)c4ccccc4)cc23)C1
**A:** 12

**Q:** Complete the entry with inhibition for Oc1ccc(Cl)cc1CN1CCC(CCOC(c2ccccc2)c2ccccc2)CC1
**A:** 14

**Q:** Complete the entry with inhibition for C[C@H](Cc1ccc(OCCCCCCOc2ccccc2)cc1)NC[C@@H](O)c1cc(Br)no1
**A:** 21

**Q:** Complete the entry with inhibition for C#CCN1CCC2=C(C1)c1c(O)cc(C(C)C(C)CCc3ccc(F)cc3)cc1OC2(C)C (stereo not given)
**A:** 10

**Q:** Complete the entry with inhibition for CN1C(=O)[C@H](NC(=O)[C@@H](Cc2ccccc2)NC(=S)Nc2ccccc2)N=C(c2ccccc2)c2ccccc21
**A:** -8

**Q:** Complete the entry with inhibition for O=C(O)c1ccc2nc(-c3ccc(-c4ccccc4)cc3)n(C3CCN(Cc4ccc(-c5ncc[nH]5)cc4)CC3)c2c1
**A:** 3

**Q:** Complete the entry with inhibition for CCCN(CC(=O)NCCc1ccccc1)c1ccc(C#N)c2ccccc12
**A:** 8

**Q:** Complete the entry with inhibition for OC(CNC1CCCCCCC1)c1ccc(Cl)c(Cl)c1 (stereo not given)
**A:** 17

**Q:** Complete the entry with inhibition for CN(c1ccc(NC(=O)CCOc2ccccc2)cc1)C1CCN(Cc2cccc(O)c2)CC1
**A:** 18

**Q:** Complete the entry with inhibition for c1ccc2c(NCCCCCCCCCNc3c4ccccc4nc4ccccc34)c3ccccc3nc2c1
**A:** 99

**Q:** Complete the entry with inhibition for CCN(CC)CCOC(=O)C(OC)(c1ccccc1)c1ccccc1
**A:** -4

**Q:** Complete the entry with inhibition for CC(Cc1ccc(S(=O)(=O)N(C(C)C)C(C)C)cc1)NCC(O)c1cccc(C(F)(F)F)c1 (stereo not given)
**A:** 21

**Q:** Complete the entry with inhibition for CCCCOC(C(=O)OCC1CCCN1C)(c1ccccc1)c1ccccc1 (stereo not given)
**A:** 3
